Hello, the source for this data is the supplement of paper PMC8728848, in case you need it.

Listed binders paired with reported glycan array binding signal (z-score)
# system-under-test: Fuc(a1-3)[Gal(b1-4)]GlcNAc6S
# assay-comment: glycan array binding signal (z-score within array); higher = stronger binding
# test-context: glycan notation: IUPAC condensed, linker removed
Many of the other results were omitted from the sample, so the strongest signals are more common in it than they were.

Consider the reported glycan array binding signal (z-score) for these binders:
INPUT: Look up glycan array binding signal (z-score) of Agalectin (Anopheles gambiae) (protein) MSNRPFTAKFPRYPENGDEVFIRGKLKDDAKSFSVNFCLPRPAQVAEHQTPPYIALHFKTIYDERDDTSRVVLNWKNLQWQQEEVLDNYWHVDRSQTFRVVFRLHEDCIKVFVNSVDHPPDYQFPVQLPLDQIESIELWDDVEHVEEISFRYDNGNSY and report it.
OUTPUT: 0.34

INPUT: Look up glycan array binding signal (z-score) of Surfactant Protein D (rat); Neck + Carbohydrate Recognition Domain (NCRD) (Rattus norvegicus) (protein) MLLFLLSALVLLTQPLGYLEAEMKTYSHRTMPSACTLVMCSSVESGLPGRDGRDGREGPRGEKGDPGLPGAAGQAGMPGQAGPVGPKGDNGSVGEPGPKGDTGPSGPPGPPGVPGPAGREGALGKQGNIGPQGKPGPKGEAGPKGEVGAPGMQGSAGARGAGPKGERGVPGERGVPGNTGAAGSAGAMGPQGSPGARGPPGLKGDKGIPGDKGAKGESGLPDVASLRQQVEALQGQVQHLQAAFSQYKKVELFPNGQSVGEKIFKTAGFVKPFTEAQLLCTQAGGQLASPRSAAENAALQQLVVAKNEAAFLSMTDSKTEGKFTYPTGESLVYSNWAPGEPNDDGGSEDCVEIFTNGKWNDRACGEKRLVVCEF and report it.
OUTPUT: 0.145

# input for lookup
INPUT: Look up glycan array binding signal (z-score) of YASPKCFRYPNGVLACT [Odorranalectin (Odorrana grahami), B3TFE9_RANGR] and report it.
OUTPUT: -0.198
